Reported values: Ki for 5HT5A (Homo sapiens), one per item.

Worked cases, answers included:
INSERT INTO assay_data (molecule, reported_value) VALUES
  ('Cc1cc(-c2ccc(CNC3Cc4ccccc4C3)c(F)c2)cc(-c2ncn[nH]2)c1 [5A]', '8.04 µM'),
  ('Cc1cc(C(N)=O)cc(-c2ccc(CNC3Cc4ccccc4C3)cc2)c1 [3A]', '> 10 µM'),
  ('Cc1cc(-c2cc(F)c(CNC3Cc4ccccc4C3)c(F)c2)cc(-c2ncn[nH]2)c1 [4A]', '> 10 µM'),
  ('Cc1cc(C(N)=O)cc(-c2cc(F)c(CNC3Cc4ccccc4C3)c(F)c2)c1 [1A]', '> 10 µM'),
  ('Cc1cc(-c2ccc(CNC3Cc4ccccc4C3)cc2)cc(-c2nc[nH]n2)c1 [6A]', '3.94 µM');

Let me check: Cc1cc(C(N)=O)cc(-c2ccc(CNC3Cc4ccccc4C3)c(F)c2)c1 [2A] , system 5HT5A (Homo sapiens), measured Ki is > 10 µM

---

Consider the following Ki values measured on UniProt P41595.
Sequence (P41595 whole entry): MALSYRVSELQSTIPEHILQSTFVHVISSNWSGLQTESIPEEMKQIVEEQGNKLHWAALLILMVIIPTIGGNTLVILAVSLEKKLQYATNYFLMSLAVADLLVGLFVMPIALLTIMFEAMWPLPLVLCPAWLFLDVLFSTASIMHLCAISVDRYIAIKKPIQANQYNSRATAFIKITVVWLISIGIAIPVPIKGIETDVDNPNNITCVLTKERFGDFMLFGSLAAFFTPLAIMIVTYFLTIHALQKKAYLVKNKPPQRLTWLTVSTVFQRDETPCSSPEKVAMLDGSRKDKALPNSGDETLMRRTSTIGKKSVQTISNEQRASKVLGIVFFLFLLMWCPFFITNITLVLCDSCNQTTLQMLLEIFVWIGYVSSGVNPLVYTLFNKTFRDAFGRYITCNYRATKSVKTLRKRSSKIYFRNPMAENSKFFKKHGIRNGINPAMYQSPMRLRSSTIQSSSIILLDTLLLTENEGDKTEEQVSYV

Some solved entries appear below for comparison.
INSERT INTO assay_data (compound, reported_value) VALUES
  ('Cc1cc(C(N)=O)cc(-c2ccc(CNC3Cc4ccccc4C3)cc2)c1 [3A]', '> 10 µM'),
  ('Cc1cc(C(N)=O)cc(-c2ccc(CNC3Cc4ccccc4C3)c(F)c2)c1 [2A]', '> 10 µM');

So, Cc1cc(C(N)=O)cc(-c2cc(F)c(CNC3Cc4ccccc4C3)c(F)c2)c1 [1A] ? Its Ki was > 10 µM
